system: Puccinia recondita f. sp. Tritici; test: Test B: preventive spray on wheat seedlings, wheat leaf rust disease rating; format: in vivo; details: 50 ppm, 100 = 100% disease control, 0 = no control
Label TRUE when Test B disease control rating >= 70%; otherwise FALSE.

Prompt: In plain terms: is recorded Test B disease control rating at least 70% for COc1ccc(Cl)c(-n2nc(Cl)c(=O)c(Cl)c2-c2ccc(F)cc2Cl)c1 ?
Completion: TRUE

Prompt: And CCOC(=O)c1nn(-c2cc(OC)cc(OC)c2)c(-c2ccc(F)cc2)c(C(=O)OCC)c1=O ?
Completion: FALSE

Prompt: And Cc1c(-c2ccc(F)cc2Cl)c(-c2nn(C)cc2Cl)nn(C)c1=O ?
Completion: TRUE

Prompt: And COc1ccc(Cl)c(-n2nc(OC)c(=O)cc2-c2ccc(F)cc2Cl)c1 ?
Completion: TRUE

Prompt: And COc1cc(OC)cc(-c2nc(C)nc(OC)c2-c2ccc(F)cc2Cl)c1 ?
Completion: FALSE

Prompt: And CCn1c(-c2c(F)cc(F)cc2F)c(-c2cc(OC)c(Cl)c(OC)c2)cc(C#N)c1=O ?
Completion: TRUE

Prompt: And COc1ccc(Cl)c(-n2nc(Br)c(=O)c(Cl)c2-c2ccc(F)cc2Cl)c1 ?
Completion: TRUE

Prompt: And Cc1c(-c2nn(C)c(=O)c(C)c2-c2ccc(F)cc2Cl)csc1Br ?
Completion: TRUE

Prompt: And Cc1sccc1-c1nn(C)c(=O)c(C)c1-c1ccc(F)cc1Cl ?
Completion: TRUE

Prompt: And COC(=O)c1nn(-c2cc(OC)ccc2Cl)c(-c2ccccc2F)c(Cl)c1=O ?
Completion: FALSE

Prompt: And COc1cc(OC)c(Cl)c(-n2nc(I)c(=O)c(C)c2-c2ccc(F)cc2Cl)c1 ?
Completion: TRUE

Prompt: And CCOC(=O)c1nn(-c2cc(OC)cc(OC)c2Cl)c(-c2ccc(F)cc2)c(C(=O)OCC)c1=O ?
Completion: FALSE

----------
tested on: Botrytis cinerea; assay: Test E: preventive spray on tomato seedlings, tomato Botrytis disease rating; type: in vivo; conditions: Botrytis cinerea, 120 h, 50 ppm, 100 = 100% disease control, 0 = no control
Property name: pest or weed control at 50 ppm (%)
Number only, in %; omit the unit.

Prompt: Lookup: pest or weed control at 50 ppm / Botrytis cinerea / COc1cc(OC)c(Cl)c(-c2noc(=O)c(C)c2-c2ccc(F)cc2Cl)c1
Completion: 91

Prompt: And Cc1c(-c2ccc(F)cc2Cl)c(-c2ccsc2Cl)nn(C)c1=O ?
Completion: 97

Prompt: And COc1cc(OC)cc(-n2c(-c3ccc(F)cc3Cl)c(Cl)c(=O)n(C)c2=O)c1 ?
Completion: 70

Prompt: And COc1cc(OC)c(Cl)c(-n2c(-c3ccc(F)cc3Cl)c(C)c(=O)n(C)c2=O)c1 ?
Completion: 95

Prompt: And COc1ccc(Cl)c(-c2nn(C)c(=O)c(C)c2-c2cnccc2C)c1 ?
Completion: 96

Prompt: And COc1cc(OC)c(Cl)c(-c2cc(C#N)c(=O)n(C)c2-c2ccc(F)cc2Cl)c1 ?
Completion: 98

Prompt: And COc1cc(OC)cc(-n2nc(C)c(=O)c(C)c2-c2ccc(F)cc2F)c1 ?
Completion: 98

Prompt: And COc1cc(OC)cc(-c2cc(C#N)c(=O)n(C)c2-c2c(F)cc(F)cc2F)c1 ?
Completion: 98

Prompt: And COc1cc(OC)cc(-n2c(-c3ccc(F)cc3Cl)c(C)c(=O)n(C)c2=O)c1 ?
Completion: 90

Prompt: And COc1cc(OC)c(Cl)c(-n2nc(Br)c(=O)c(C)c2-c2ccc(F)cc2Cl)c1 ?
Completion: 98

Prompt: And COc1cc(OC)c(Cl)c(-c2cc(C#N)c(=O)n(C)c2-c2c(F)cc(F)cc2F)c1 ?
Completion: 93

Prompt: And COc1cc(-c2cc(C#N)c(=O)n(C)c2-c2c(F)cc(F)cc2F)cc(OC)c1Cl ?
Completion: 63

Prompt: And COc1cc(OC)cc(-n2nc(C)c(=O)c(C)c2-c2ccc(F)cc2Cl)c1 ?
Completion: 96

Prompt: And CCn1c(-c2ccc(F)cc2Cl)c(-c2cc(OC)cc(OC)c2Cl)cc(C#N)c1=O ?
Completion: 99

Prompt: And COc1cc(-n2nc(CO)c(=O)c(C)c2-c2ccc(F)cc2F)cc(OC)c1Cl ?
Completion: 0

Prompt: And COc1cc(OC)cc(-c2nc(C)nc(C)c2-c2c(F)cc(F)cc2F)c1 ?
Completion: 96

Prompt: And CCc1nc(C)nc(-c2cc(OC)cc(OC)c2Cl)c1-c1ccc(F)cc1Cl ?
Completion: 94

Prompt: And COc1cc(OC)c(Cl)c(-n2nc(Cl)c(=O)c(C)c2-c2ccc(F)cc2Cl)c1 ?
Completion: 96

Prompt: And COc1cc(OC)cc(-n2nc(CO)c(=O)c(C)c2-c2ccc(F)cc2F)c1 ?
Completion: 46

Prompt: And COc1cc(OC)c(Br)c(-c2nc(C)nc(C)c2-c2ccc(F)cc2Cl)c1 ?
Completion: 88

Prompt: And COc1cc(OC)c(Cl)c(-n2c(-c3ccc(F)cc3Cl)c(Cl)c(=O)n(C)c2=O)c1 ?
Completion: 94

Prompt: And COc1cc(OC)c(Cl)c(-c2nc(C)nc(C)c2-c2c(F)cc(F)cc2F)c1 ?
Completion: 97

FYI, the data here is from patent US20240308968A1.
